Entries and their IC50
Tested on: HepG2
protocol-description: Cytotoxicity against human HepG2 cells assessed as growth inhibition after 48 hrs by MTT assay
Assay type: functional, cell-based
experimental-setup: HepG2, 48 h

// below: answered compounds
>  <line-notation>
C[C@@H]1C(=O)O[C@H]2C[C@H]3[C@@H]4CC[C@H]5C[C@@H](O[C@@H]6O[C@H](CO)[C@H](O)[C@H](O)[C@H]6O[C@@H]6O[C@H](CO)[C@@H](O)[C@H](O)[C@H]6O)CC[C@]5(C)[C@H]4CC[C@]3(C)[C@H]21

>  <IC50>
> 50 µM

$$$$
>  <line-notation>
CC(=O)C1=C[C@H](O)[C@H]2[C@@H]3CC[C@H]4C[C@@H](O[C@@H]5O[C@H](CO)[C@H](O)[C@H](O)[C@H]5O[C@@H]5O[C@H](CO)[C@@H](O)[C@H](O)[C@H]5O)CC[C@]4(C)[C@H]3CC[C@]12C

>  <IC50>
> 50 µM

$$$$

QUERY: Note IC50 for the compound shown: "C[C@@H]1CC[C@@]2(OC1)O[C@H]1C[C@H]3[C@@H]4CC[C@H]5C[C@@H](O[C@H]6O[C@@H](CO)[C@@H](O)[C@@H](O)[C@@H]6O[C@H]6O[C@@H](CO)[C@H](O)[C@@H](O)[C@@H]6O)[C@@H](O)C[C@]5(C)[C@H]4CC[C@]3(C)[C@H]1[C@@H]2C"
RESULT: > 50 µM
